- ASSAY NAME: PK and tissue distribution after repeated oral administration in Ba/F3-EPOR-JAK2^V617F tumor-bearing mice
- Assay type: in vivo
- EXPERIMENTAL PARAMETERS: BALB/c nude, mouse; Plasma; repeated oral 30 mg/kg
MEASUREMENT LABEL: half-life (h)

1. Cc1cnc(Nc2ccc(N3CCC(N(C)CCO)CC3)c(F)c2)nc1-c1cnn(C(C)C)c1 = 2.85

----------
- ASSAY NAME: PK and tissue distribution after single oral administration in Ba/F3-EPOR-JAK2^V617F tumor-bearing mice
- Assay type: in vivo
- EXPERIMENTAL PARAMETERS: BALB/c nude, mouse, spleen and plasma, po, 30 mg/kg, single oral 30 mg/kg; read-out: Cmax of spleen higher than that of plasma
MEASUREMENT LABEL: Kp

1) Cc1cnc(Nc2ccc(N3CCC(N(C)CCO)CC3)c(F)c2)nc1-c1cnn(C(C)C)c1 [FM] = 11.7
